Reference for the values: PubChem BioAssay AID720706

- methodNotes: GFP drop in mixed WT/humanized-ribosome E. coli culture – GFP/RFP fluorescence, OD600, single point, bacterial rRNA inhibitor project, primary screen (AID 720706)
- experimentalContext: E. coli WT GFP vs humanized-ribosome RFP mutants, 24 h; hits give low values, DMSO median 0, no signal -100
Hit rate of the full screen: of about 350,000 compounds, about 5,500 (1.6%) were called active. The sample holds actives, similar compounds and a random draw of the others, so the mix is not that of the screen.
Listing of entries alongside the reported GFP signal change (wild-type ribosome).
readoutName: GFP signal change (wild-type ribosome)

> print(dat)
                                    molecule                             readoutname      endpointresult
 1  CC(C)NC(=O)N1[C@H](C(=O)N2CCc3ccccc3C2)[C@@H](CO)[C@@H]2Cn3c(cccc3=O)[C@@H]21  GFP signal change (wild-type ribosome)  -0.919% (inactive)
 2  Cc1ccc2c(c1)C1C[N+](C)(CC(=O)c3ccccc3)CCC1N2C(=O)c1ccccc1Cl (stereo not given)  GFP signal change (wild-type ribosome)     -33.1% (active)
 3  C[C@H](CO)N1C[C@H](C)[C@H](CN(C)CC2CC2)OCCCC[C@H](C)Oc2ccc(NS(=O)(=O)c3cccs3)cc2C1=O  GFP signal change (wild-type ribosome)  -0.767% (inactive)
 4        Cc1ccc(C(=O)N2CCCc3ccccc32)c(Cl)c1  GFP signal change (wild-type ribosome)   -20.5% (inactive)
 5         CCc1ccc(C2=CC(=O)CC(C)(C)C2=O)cc1  GFP signal change (wild-type ribosome)     9.3% (inactive)
 6  O=S(=O)(Nc1ccc(OC(F)(F)F)cc1)c1cccc2nonc12  GFP signal change (wild-type ribosome)       -39% (active)
 7       CCc1c(N=O)c(-c2ccccc2)n(O)[n+]1[O-]  GFP signal change (wild-type ribosome)     -18.1% (active)
 8             CN(C)CCOCCOc1ccc(Cl)c2ccccc12  GFP signal change (wild-type ribosome)     -18.5% (active)
 9  CN(CCOc1ccc(CC2SC(=O)NC2=O)cc1)c1ccccn1 (stereo not given)  GFP signal change (wild-type ribosome)     -18.5% (active)
10  C[C@H](CO)N1C[C@H](C)[C@H](CN(C)C(=O)C2CC2)Oc2cc(-c3cccnc3)ccc2S1(=O)=O  GFP signal change (wild-type ribosome)   -1.18% (inactive)
11  O=C(C1CCOCC1)N1C[C@H]2[C@@H](c3ccccc31)[C@@H](CO)N2Cc1ccccc1  GFP signal change (wild-type ribosome)   -1.33% (inactive)
12  CCOC(=O)c1ccn(S(=O)(=O)c2ccc(C)cc2)c1-c1ccccc1  GFP signal change (wild-type ribosome)   -4.05% (inactive)
13  C[C@@H]1CCCCO[C@H](CN(C)C(=O)NC2CCCCC2)[C@H](C)CN([C@@H](C)CO)C(=O)c2cc(NC(=O)C3CCCCC3)ccc2O1  GFP signal change (wild-type ribosome)   -5.13% (inactive)
14  C/C=C/c1cnc2c(c1)C(=O)N([C@H](C)CO)C[C@H](C)[C@@H](CN(C)CC1CCOCC1)O2  GFP signal change (wild-type ribosome)    7.65% (inactive)
15  CCCCN1CC(C)(C)[C@H](CC(=O)Nc2ccc(Br)cc2)C1=O  GFP signal change (wild-type ribosome)   -12.6% (inactive)
16              CN(C)CCOc1ccc(Cl)cc1C(C)(C)C  GFP signal change (wild-type ribosome)    -1.5% (inactive)
17  CN1C(CC(=O)Nc2ccc(Br)cc2)c2ccccc2CC1(C)C (stereo not given)  GFP signal change (wild-type ribosome)     -26.3% (active)
18        COc1ccc(/C=N/NC(=O)C2CC2)c(OC)c1OC  GFP signal change (wild-type ribosome)    20.9% (inactive)
19    COc1ccc(/C=C2\CCc3ccccc3C2=O)c(OC)c1OC  GFP signal change (wild-type ribosome)     -21.9% (active)
20  O=C(NC1CCCCC1)N1CC2(C1)[C@H](c1ccccc1)[C@@H](CO)N2S(=O)(=O)Cc1ccccc1  GFP signal change (wild-type ribosome)  -0.158% (inactive)
